Target: T1, human CD3ε/δ-Fc fusion protein (soluble recombinant CD3ε/δ complex) (human, UniProt P04234 22-105)
T1 construct: also called huCD3ε/δ; huCD3; not shown: hinge, CH2, CH3 of human IgG with tag
T1 sequence (chain, as listed by the source mutant, chain 1 of 2): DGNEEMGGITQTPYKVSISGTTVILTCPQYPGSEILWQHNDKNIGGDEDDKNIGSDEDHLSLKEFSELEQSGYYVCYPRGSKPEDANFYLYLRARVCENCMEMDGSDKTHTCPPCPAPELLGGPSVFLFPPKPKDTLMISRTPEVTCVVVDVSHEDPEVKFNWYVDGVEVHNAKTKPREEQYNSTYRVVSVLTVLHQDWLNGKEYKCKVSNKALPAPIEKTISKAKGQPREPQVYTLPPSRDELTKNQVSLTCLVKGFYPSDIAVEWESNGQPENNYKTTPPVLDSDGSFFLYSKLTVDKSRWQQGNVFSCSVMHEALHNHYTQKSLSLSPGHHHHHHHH
T1 sequence (P04234 22-105, stated change not applied, chain 2 of 2): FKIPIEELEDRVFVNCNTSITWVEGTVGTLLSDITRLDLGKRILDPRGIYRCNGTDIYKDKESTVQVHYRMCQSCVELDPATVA
Test: SPR Biacore, Fab
Procedure: Binding affinities of anti-CD3 binding Fabs or CODV-Fabs were measured by surface plasmon resonance (SPR) using a Biacore3000 instrument (GE Healthcare). Assay buffer was HBS-EP (BR-1001-88, GE Healthcare). Capture of CD3ε/δ-Fc fusion proteins was achieved using the human antibody capture kit (GE Healthcare). […] Binding kinetics with the anti-CD3 Fabs or CODV-Fabs was measured at 30 μl/min for 240 sec. and 600 sec. for association and dissociation phase, respectively. […]
measured_attribute: koff (s⁻¹)
Answers are plain numbers, in s⁻¹.

[[record]]
binder = "humanized 4B4 Fab 4B4_1 (VL1a, VH1B) (Fab, V domains shown, expressed as Fab-fragment) VH: QVQLVETGGGLVKPGQSLKLTCATSGFTFSNAWMHWVRQSPEKGLEWVAQIKARSNNYATYYAVSVKGRFTISRDDSKSTIYLQMNSLTPEDTAIYYCRGTYYASKPFDYWGQGVMVTVSS VL: DVVMTQTPVSLSVSVGGRVSISCRSSQSLVHDNGNTYLSWSLQKPGKSPKVLIYKVSNRFSGVSSRFTGSGSGTDFTLKISSVQPDDLGVYYCGQGTQYPFTFGSGTKLEIK"
unit_spec = "s⁻¹"
value_measured = 0.00174

[[record]]
binder = "humanized 4B4 Fab 4B4_20 (VL2F, VH6C) (Fab, V domains shown, expressed as Fab-fragment) VH: QVQLVESGGGVVQPGRSLRLSCAASGFTFSNAWMHWVRQAPGKQLEWVAQIKARSNNYATYYADSVKGRFTISRDDSKSTLYLQMNSLRAEDTAVYYCRGTYYASKPFDYWGQGTLVTVSS VL: DIVMTQTPLSLSVTPGQPASISCKSSQSLVHDNANTYLSWYLQKPGQSPQSLIYKVSNRFSGVPDRFSGSGSGTDFTLKISRVEAEDVGVYYCGQGTQYPFTFGSGTKVEIK"
unit_spec = "s⁻¹"
value_measured = 0.00171


For the next question, use this binder.
Which koff is reported for this binder? humanized 4B4 Fab 4B4_2 (VL1b, VH1B) (Fab, V domains shown, expressed as Fab-fragment) VH: QVQLVETGGGLVKPGQSLKLTCATSGFTFSNAWMHWVRQSPEKGLEWVAQIKARSNNYATYYAVSVKGRFTISRDDSKSTIYLQMNSLTPEDTAIYYCRGTYYASKPFDYWGQGVMVTVSS VL: DVVMTQTPVSLSVSVGGRVSISCRSSQSLVHDNANTYLSWSLQKPGKSPKVLIYKVSNRFSGVSSRFTGSGSGTDFTLKISSVQPDDLGVYYCGQGTQYPFTFGSGTKLEIK 0.00214
